Source: paper doi:10.64898/2025.12.03.692196v2

tested-system: YRDCWT (human YRDC, ΔN43) (Homo sapiens, UniProt Q86U90)
Construct: lacks first 43 residues (N-terminal truncation); N-terminal His6 tag removed with TEV; E. coli BL21(DE3); homodimer
Sequence (Q86U90 44-279 C121A): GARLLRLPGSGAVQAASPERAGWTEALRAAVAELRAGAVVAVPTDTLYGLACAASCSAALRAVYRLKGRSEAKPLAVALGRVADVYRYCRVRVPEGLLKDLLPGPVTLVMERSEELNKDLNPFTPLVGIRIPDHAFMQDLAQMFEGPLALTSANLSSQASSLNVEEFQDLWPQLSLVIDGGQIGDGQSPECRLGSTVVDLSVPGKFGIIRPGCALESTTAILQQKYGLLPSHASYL
protocol: biochemical
Parameters: SYPRO Orange DSF; apparent Kd from Tm versus ligand concentration
assay-setup: With ATP and L-threonine; DSF apparent KD
Experimental: Reactions were prepared in a MicroAmp™ 96-well optical reaction plate (Fisher Scientific) with a final volume of 20 μL per well, in assay buffer (50 mM Tricine pH 8.5, 10 mM MgCl₂) with 8 μM YRDC, and 5X SYPRO Orange dye (Invitrogen). […] Fluorescence emission was recorded using Applied Biosystems® QuantStudio 1 Real-Time PCR system (λex = 520 nm, λem = 558 nm). […] The dissociation constant (KD) of the enzyme with each substrate is calculated based on the DSF single binding equation[45]: [drawing 1] […]
readout-name: pKd
Would you please state pKd, meaning minus log10 of the concentration in mol/L, as a bare number?

// returns reported pKd for input O=C(O)O [bicarbonate] 2.43
